# TEST_SYSTEM: IgE-Tb / sFcεRIα-Y131A-AF488 (Homo sapiens, UniProt P01854, N146Q/N252Q)
# Sequence (P01854 whole entry N146Q/N252Q): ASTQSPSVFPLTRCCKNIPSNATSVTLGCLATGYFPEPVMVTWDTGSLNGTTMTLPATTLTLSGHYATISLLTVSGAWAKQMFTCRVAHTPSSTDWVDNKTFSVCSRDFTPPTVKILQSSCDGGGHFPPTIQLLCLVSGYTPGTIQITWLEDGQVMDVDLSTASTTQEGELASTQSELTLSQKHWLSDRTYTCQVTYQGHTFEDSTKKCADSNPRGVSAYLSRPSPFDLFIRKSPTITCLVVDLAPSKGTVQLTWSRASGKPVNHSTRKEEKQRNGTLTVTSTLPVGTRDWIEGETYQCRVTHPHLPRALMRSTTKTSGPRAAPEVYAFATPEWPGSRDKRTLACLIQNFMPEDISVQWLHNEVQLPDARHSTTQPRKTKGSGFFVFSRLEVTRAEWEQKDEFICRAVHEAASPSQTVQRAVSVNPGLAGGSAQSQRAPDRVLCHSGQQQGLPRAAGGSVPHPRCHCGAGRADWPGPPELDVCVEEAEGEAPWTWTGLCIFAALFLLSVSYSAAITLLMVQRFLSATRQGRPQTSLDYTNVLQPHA
# EXPERIMENT_DESCRIPTION: IgE-Tb / sFcεRIα-Y131A-AF488 FRET assay (protocol for examples 234 to 501)
# EXPERIMENTAL_CONDITIONS: examples 234 to 501: compound with IgE-Tb 30 minutes before sFcεRIα-Y131A-AF488, incubated 18 hours at room temperature; read-out: Y131A FRET IC50 range
pIC50: −log10 of the molar value.
MEASURE: pIC50

State the recorded pIC50 for this entry: Cc1cc(Nc2nncn2[C@H]2CCc3sc(NC(=O)C4CC45CC5)c(C(=O)NCC4CC4)c3C2)n(C)n1 (stereo partly drawn)
> 6.00

What does the data say about its pIC50? Entry: Cn1nc(OC(F)F)cc1Nc1nncn1[C@H]1CCc2sc(NC(=O)C3CC3)c(C(=O)NCC3CCC3(F)F)c2C1 (stereo partly drawn)
> 6.00

Others:
For Cn1nc(C(F)F)cc1Nc1nncn1[C@H]1CCc2sc(NC(=O)C3CC3)c(C(=O)NC3CC34CC4)c2C1 (mixture of isomers) , what is its reported pIC50?
> 6.00

----------
# TEST_SYSTEM: IgE-Tb / sFcεRIα-Y131A-AF488 (Homo sapiens, UniProt P01854, N146Q/N252Q)
# EXPERIMENT_DESCRIPTION: IgE-Tb / sFcεRIα-Y131A-AF488 FRET assay (protocol for examples 234 to 501)
# EXPERIMENTAL_CONDITIONS: examples 234 to 501: compound with IgE-Tb 30 minutes before sFcεRIα-Y131A-AF488, incubated 18 hours at room temperature; read-out: Y131A FRET IC50 range
pIC50: −log10 of the molar value.
The following compounds are listed with their measured pIC50 values.

Reference set, count: 2
Test system IgE-Tb / sFcεRIα-Y131A-AF488 (Homo sapiens, UniProt P01854, N146Q/N252Q); read-out pIC50; what value for Cn1nc(OC(F)F)cc1Nc1nncn1[C@H]1CCc2sc(NC(=O)C3CC3)c(C(=O)N[C@H]3C[C@H](F)C3)c2C1 [Example 449] ?
> 6.00

For IgE-Tb / sFcεRIα-Y131A-AF488 (Homo sapiens, UniProt P01854, N146Q/N252Q), provide pIC50 of CCOC(=O)c1ncn([C@H]2CCc3sc(NC(=O)C4CC4)c(C(=O)NCC4CC4)c3C2)c1Nc1c([N+](=O)[O-])c(C)nn1C [Example 262] please.
> 6.00

Others:
Kindly state the measured pIC50 obtained for Cn1nc(C(F)F)cc1Nc1nncn1[C@H]1CCc2sc(NC(=O)C3CC3(F)F)c(C(=O)NCC3CC3(F)F)c2C1 (single isomer, unassigned) [Example 282] with IgE-Tb / sFcεRIα-Y131A-AF488 (Homo sapiens, UniProt P01854, N146Q/N252Q).
> 6.00

----------
# TEST_SYSTEM: IgE-Tb / FcεRIα-Y131A-AF488 (Homo sapiens, UniProt P01854)
# Sequence (P01854 1-427 limits assumed, stated change not applied): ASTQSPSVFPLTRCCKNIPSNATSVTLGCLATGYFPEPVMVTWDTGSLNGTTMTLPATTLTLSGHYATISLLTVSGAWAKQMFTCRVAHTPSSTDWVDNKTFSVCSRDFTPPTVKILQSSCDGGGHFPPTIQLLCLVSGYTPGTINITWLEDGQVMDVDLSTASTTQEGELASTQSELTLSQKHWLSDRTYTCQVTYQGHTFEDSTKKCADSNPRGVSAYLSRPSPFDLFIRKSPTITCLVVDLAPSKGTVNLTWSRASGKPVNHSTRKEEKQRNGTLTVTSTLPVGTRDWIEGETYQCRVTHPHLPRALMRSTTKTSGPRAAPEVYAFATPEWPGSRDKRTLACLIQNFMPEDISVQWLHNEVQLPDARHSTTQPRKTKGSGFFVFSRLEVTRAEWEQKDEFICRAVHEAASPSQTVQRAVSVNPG
# EXPERIMENT_DESCRIPTION: IgE-Tb / FcεRIα-Y131A-AF488 FRET assay (protocol for examples 1 to 233)
# EXPERIMENTAL_CONDITIONS: examples 1 to 233: 5 nM IgE-Tb, 25 nM FcεRIα-Y131A-AF488, incubated 2 hours at room temperature; read-out: Y131A FRET IC50 range
pIC50: −log10 of the molar value.
MEASURE: pIC50

Some solved entries appear below for comparison.
What does the record list as pIC50 for COC1CN(C(=O)c2c(NC(=O)C3CC3)sc3c2CCCC3)C1 [Example 77] ?
5.00 to 6.00

Reported pIC50, compound CC(C)(C)CNc1nncn1C1CCc2sc(NC(=O)C3CC3)c(C(=O)NCC3CC3)c2C1 (stereo in doubt) [Example 105] : ____
> 6.00

Quick one: pIC50 of O=C(OCC1CC1)c1c(NC(=O)C2CC2)sc2c1CC(NC(=S)Nc1cccnc1)CC2 (centres unmarked) [Example 93] ?
5.00 to 6.00

Quick one: pIC50 of CC(C)CNS(=O)(=O)c1c(NC(=O)C2CC2)sc2c1CC(Nc1ncccn1)CC2 (centres unmarked) [Example 23] ?
> 6.00

Look up pIC50 for this compound: O=C(Nc1sc2c(c1S(=O)(=O)NCC1CC1)CCCC2)C1CC1 [Example 15]
> 6.00

What pIC50 value was documented for this compound, O=C(NCC1CC1)c1c(NC(=O)C2CC2)sc2c1CC(C(=O)Nc1ccc3[nH]ncc3c1)CC2 (centres unmarked) [Example 45] ?
> 6.00

We now examine a further compound.
Fill in: pIC50 of O=C(Nc1sc2c(c1C(=O)N1CC[C@@H](F)C1)CCCC2)C1CC1 [Example 75] is ___
5.00 to 6.00
